# measured-target: recombinant human MAO-A (Homo sapiens)
# Sequence (P21397 whole entry): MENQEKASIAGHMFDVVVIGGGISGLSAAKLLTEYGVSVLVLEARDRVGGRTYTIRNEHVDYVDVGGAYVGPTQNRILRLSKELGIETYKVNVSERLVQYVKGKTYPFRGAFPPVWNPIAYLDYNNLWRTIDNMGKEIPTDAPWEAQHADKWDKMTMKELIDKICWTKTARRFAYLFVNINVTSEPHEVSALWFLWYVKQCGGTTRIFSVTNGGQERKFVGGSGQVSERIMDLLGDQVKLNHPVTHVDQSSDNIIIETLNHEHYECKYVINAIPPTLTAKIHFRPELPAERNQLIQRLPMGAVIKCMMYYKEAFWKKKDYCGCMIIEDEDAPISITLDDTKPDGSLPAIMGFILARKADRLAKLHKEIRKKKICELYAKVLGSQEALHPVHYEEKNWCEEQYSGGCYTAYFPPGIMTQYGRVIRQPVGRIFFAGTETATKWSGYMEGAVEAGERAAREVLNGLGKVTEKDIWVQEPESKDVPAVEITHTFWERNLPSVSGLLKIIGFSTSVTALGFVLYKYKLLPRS
# experiment-description: Cell-free Fluorescent Monoamine Oxidase A&B Detection Assay, MAO-A
# Format: biochemical
# assay-context: cell-free, recombinant human MAO-A; read-out: IC50 MAO-A
# Method: The assay was repeated to confirm data. MAO B specific inhibitory activity and selectivity over MAO A is assayed using a commercial kit [Fluoro MAO A and B detection kit (Cell Technology Inc™)]. This kit uses a non-fluorescent detection reagent to measure H2O2 released from the conversion of an MAO A and MAO B substrate specific to its aldehyde. Furthermore, H2O2 oxidizes the detection reagent in a 1:1 stoichiometry to produce a fluorescent product (resorufin). […]
Structures can show the parent of a compound that is named as a salt.
Lab note: cut-off is 400 µM. Strictly less in IC50 is rule met. Exactly 400 µM or more is rule not met.

Hi there! Is IC50 for C#CCN(C)CCc1ccccc1 below 400 µM, do you know?
rule met

Hi there! Is IC50 for C[C@H](Cc1ccc(OCc2ccc(Cl)cc2)cc1)N(C)CC(=O)O [PS-RG0226, hydrochloride] below 400 µM, do you know?
rule met

Hi there! Is IC50 for COc1cccc(COc2ccc(C[C@@H](C)N(C)CC(=O)O)cc2)c1 [PS-RG0264, hydrochloride] below 400 µM, do you know?
rule met

Hi there! Is IC50 for C[C@H](Cc1ccc(OCc2ccc3ccccc3c2)cc1)N(C)CC(=O)O [PS-RG0227, hydrochloride] below 400 µM, do you know?
rule not met

Hi there! Is IC50 for CN(CC(=O)O)[C@H](CC#N)Cc1ccc(OCc2ccc(Cl)c(Cl)c2)cc1.Cl below 400 µM, do you know?
rule met

----------
# experiment-description: in vitro BBB permeability in MDCK-WT cells
# assay-context: dog, MDCK
Structures can show the parent of a compound that is named as a salt.
Kindly supply the reported Papp values for the records listed here.
Express your answer in ×10⁻⁶ cm/s, writing the number without its unit.

Would you mind telling me what Papp value was observed for C#CCN(C)[C@H](C)Cc1ccccc1 [Deprenyl] ?
44

Would you mind telling me what Papp value was observed for C[C@H](Cc1ccc(OCc2ccc(Br)c(Cl)c2)cc1)N(C)CC(=O)O.Cl [PS-RG0216] ?
1.2

Would you mind telling me what Papp value was observed for C[C@H](Cc1ccc(OCc2cccc(Cl)c2)cc1)N(C)CC(=O)O [PS-RG0103, hydrochloride] ?
2.2

Would you mind telling me what Papp value was observed for C[C@H](Cc1ccc(OCc2ccc(Cl)c(Cl)c2)cc1)N(C)CC(=O)O.Cl [PS-RG0245] ?
3.6

Would you mind telling me what Papp value was observed for CN(CC(=O)O)[C@H](CC#N)Cc1ccc(OCc2ccc(Cl)c(Cl)c2)cc1.Cl [PS-AD0191] ?
7.9

----------
Kindly supply the reported IC90 values for the records listed here.
# measured-target: recombinant human MAO-B (Homo sapiens, UniProt P27338)
# Sequence (P27338 1-520): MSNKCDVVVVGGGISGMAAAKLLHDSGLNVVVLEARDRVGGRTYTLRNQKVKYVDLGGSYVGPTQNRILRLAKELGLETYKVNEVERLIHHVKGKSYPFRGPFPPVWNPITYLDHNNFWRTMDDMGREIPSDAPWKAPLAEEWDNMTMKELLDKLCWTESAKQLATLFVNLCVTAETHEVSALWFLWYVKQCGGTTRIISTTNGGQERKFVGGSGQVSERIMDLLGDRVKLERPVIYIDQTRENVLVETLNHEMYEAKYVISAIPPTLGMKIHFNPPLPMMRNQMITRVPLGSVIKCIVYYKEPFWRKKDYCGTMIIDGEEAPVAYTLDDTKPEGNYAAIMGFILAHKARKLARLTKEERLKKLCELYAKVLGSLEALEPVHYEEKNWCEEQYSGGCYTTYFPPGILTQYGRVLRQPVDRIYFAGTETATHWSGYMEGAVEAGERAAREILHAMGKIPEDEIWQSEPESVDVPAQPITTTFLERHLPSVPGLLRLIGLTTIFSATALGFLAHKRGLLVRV
# experiment-description: Cell-free Fluorescent Monoamine Oxidase A&B Detection Assay, MAO-B
# Type: biochemical
Where a name gives a salt, the structure may show the parent alone.
Express your answer in µM, writing the number without its unit.

Would you mind telling me what IC90 value was observed for CN(CC(=O)O)[C@H](CCl)Cc1ccc(OCc2ccccc2)cc1 ?
13.4

Would you mind telling me what IC90 value was observed for CN(CC(=O)O)[C@H](CO)Cc1ccc(OCc2ccccc2)cc1 ?
19.7

Would you mind telling me what IC90 value was observed for C[C@H](Cc1ccc(OCc2ccncc2)cc1)N(C)CC(=O)O.Cl.Cl [PS-AD0068, hydrochloride] ?
506

Would you mind telling me what IC90 value was observed for COC(=O)[C@H](Cc1ccc(OCc2cccc(Cl)c2)cc1)N(C)CC(=O)O [PS-RG0122, hydrochloride] ?
19.1

Would you mind telling me what IC90 value was observed for C[C@H](Cc1ccc(OCc2cc(F)cc(F)c2)cc1)N(C)CC(=O)O.Cl [PS-RG0174, hydrochloride] ?
6.7

Would you mind telling me what IC90 value was observed for C[C@H](Cc1ccc(OCc2cccc(F)c2)cc1)N(C)CC(=O)O.Cl [PS-RG0173, hydrochloride] ?
13.5

Would you mind telling me what IC90 value was observed for COc1cccc(COc2ccc(C[C@@H](C)N(C)CC(=O)O)cc2)c1 [PS-RG0264, hydrochloride] ?
50.5

Would you mind telling me what IC90 value was observed for C[C@H](Cc1ccc(OCc2cccc(Cl)c2)cc1)N(C)CC(=O)O [PS-RG0103, hydrochloride] ?
2.27

Would you mind telling me what IC90 value was observed for C#CCN(C)CCc1ccccc1 ?
0.0306

Would you mind telling me what IC90 value was observed for C[C@H](Cc1ccc(Oc2ccccc2)cc1)N(C)CC(=O)O [PS-RG0008, hydrochloride] ?
331
